experiment: loss of viability in HepG2 cells – cell-based, CellTiter-Glo, cherry-picked, cytotoxicity control for Shn3 inhibitor project, dose response (AID 624134); type: functional
Active and inactive are the calls of the source.
Select the correct class. Options are 1 (yes) for active, 0 (no) for inactive and nothing else.

Below, 4 molecules whose answers are already recorded.
CC1CN(S(=O)(=O)c2ccc(C(=O)Nc3nc(-c4cc5ccccc5o4)cs3)cc2)CC(C)O1 (stereo not given)    1 (yes)
CC(C)N1CCN(c2ccc(OCC3COC(Cn4cncn4)(c4ccc(Cl)cc4Cl)O3)cc2)CC1 (stereo not given) [TERCONAZOLE]    1 (yes)
CC(C)(C)n1nnnc1C(c1cccs1)N1CCCC2(CCCCC2)C1 (stereo not given)    0 (no)
Cn1c(=O)c2c(nc(NCc3ccco3)n2C/C=C/c2ccccc2)n(C)c1=O    1 (yes)

Now for a further molecule.
Task: Short answer needed: outcome of this test for COc1ccccc1N(C)S(=O)(=O)c1ccc(C(=O)Nc2cc(F)ccc2C)cc1 ?
Output: 0 (no)

====

Dear all, this message contains AC50 results, target or system Cytochrome P450 3A4 (Homo sapiens, UniProt P08684).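 Also: CYP3A4 tested as one member of a cytochrome P450 panel screen.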

Task: What measured AC50 is associated with CCN(CC)C(=O)C1CCN(S(=O)(=O)c2ccc3oc4ccccc4c3c2)CC1 on Cytochrome P450 3A4 (Homo sapiens, UniProt P08684)?
Output: 3.98 µM (inconclusive)

Task: What measured AC50 is associated with COc1ccc(O)c(/C=N/NC(=O)c2ccc(OCc3cccc(Br)c3)cc2)c1 on Cytochrome P450 3A4 (Homo sapiens, UniProt P08684)?
Output: 7.08 µM (inconclusive)

Task: What measured AC50 is associated with COc1ccc2c(OC)c3ccoc3nc2c1OC on Cytochrome P450 3A4 (Homo sapiens, UniProt P08684)?
Output: 7.94 µM (inconclusive)

Task: What measured AC50 is associated with O=C(CCCN1CCC2(CC1)C(=O)N(Cc1cccc(F)c1)CN2c1ccccc1)c1ccc(F)cc1 on Cytochrome P450 3A4 (Homo sapiens, UniProt P08684)?
Output: 31.6 µM (inconclusive)

Task: What measured AC50 is associated with N=c1sc2ccccc2n1CC[S-].c1ccc2c(c1)sc1[n+]2CCS1 on Cytochrome P450 3A4 (Homo sapiens, UniProt P08684)?
Output: 3.16 µM (inconclusive)

====

assay: Luminescence Cell-Based Dose Confirmation HTS to Identify Inhibitors of Platelet Dense Granule Release. [Related pubchem assays: 1663 (Primary HTS), 1678 (Summary of Project)]; assay type: functional
Calls of active or inactive are those of the source.
Some compounds, each annotated with its measured EC50.

Below are worked cases with known answers.
CCn1nnnc1SCC(=O)NC1CCCC1    > 112 µM (not active)
O=C(Nc1ccccn1)c1c(O)c2cccc3c2n(c1=O)CCC3    > 112 µM (not active)
O=C(/C=C/c1ccc(O)c(O)c1)c1ccccc1O    2.23 µM (active)
Cc1ccc(/C(O)=C/C=N/c2ccccn2)cc1    5.11 µM (active)

Task: # EC50 lookup, item COc1ccc(CCN2CC(C(=O)NCCc3ccc(C(F)(F)F)cc3)CCC2=O)cc1 (stereo not given)
Output: > 112 µM (not active)

====

Biological target: Zinc finger protein mex-5 (Caenorhabditis elegans)
Sequence (Q9XUB2 whole entry): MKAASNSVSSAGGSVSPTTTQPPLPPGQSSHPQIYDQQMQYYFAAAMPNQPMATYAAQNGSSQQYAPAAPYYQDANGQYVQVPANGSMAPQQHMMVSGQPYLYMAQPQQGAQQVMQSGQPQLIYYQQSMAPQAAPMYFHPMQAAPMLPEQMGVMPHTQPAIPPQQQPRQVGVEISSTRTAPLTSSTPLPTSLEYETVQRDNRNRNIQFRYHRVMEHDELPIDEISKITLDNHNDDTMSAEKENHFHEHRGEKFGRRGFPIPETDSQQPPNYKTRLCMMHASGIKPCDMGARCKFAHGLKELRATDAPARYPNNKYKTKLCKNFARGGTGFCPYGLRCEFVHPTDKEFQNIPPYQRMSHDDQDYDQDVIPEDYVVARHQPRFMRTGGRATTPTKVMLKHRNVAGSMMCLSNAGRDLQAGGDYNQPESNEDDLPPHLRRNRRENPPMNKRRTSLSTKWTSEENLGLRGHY
Test: potency of MEX-5 RNA-binding blockers – biochemical, C. elegans, fluorescence polarization, dose response (AID 1960)
The source made the active and inactive calls.
measured attribute: EC50

Below are worked cases with known answers.
Nc1c(NCCC2=CCCCC2)c(=O)[nH]c(=O)n1Cc1ccccc1    13.9 µM (active)
O=C1NC(=O)C(=Cc2cn(CCOc3ccc4c(c3)OCO4)c3ccccc23)C(=O)N1    11.9 µM (active)
O=C(/C=C/c1ccc(O)c(O)c1)c1ccccc1O    42.3 µM (active)
CN1C(=O)NC(=O)/C(=C\c2ccc([N+](=O)[O-])o2)C1=O    20.6 µM (active)
O=C(O)c1cccc(-n2cccc2/C=C2/SC(=O)N(CC(=O)N3CCCC3)C2=O)c1    > 300 µM (not active)
C[C@H]1c2cccc(O)c2C(=O)C2=C(O)[C@]3(O)C(=O)C(C(N)=O)=C(O)[C@@H](N(C)C)[C@@H]3[C@@H](O)[C@@H]21    37.9 µM (active)
O=C(NNC(=O)c1cnccn1)c1ccc(Cl)cc1    12.4 µM (active)
CCN(CC)c1ccc(/C=N/NC(=O)c2ccco2)c(O)c1    > 300 µM (not active)

Task: What measured EC50 is associated with COc1cccc(C(=O)NCC(=O)NNc2ncnc(N)c2[N+](=O)[O-])c1 on Zinc finger protein mex-5 (Caenorhabditis elegans)?
Output: < 0.06 µM (inconclusive)

Task: What measured EC50 is associated with COc1ccc(C2C(C(=O)c3ccco3)=C(O)C(=O)N2c2nnc(C)s2)cc1OC (stereo not given) on Zinc finger protein mex-5 (Caenorhabditis elegans)?
Output: 297 µM (active)

Task: What measured EC50 is associated with O=C1CSC(=S)N1/N=C/c1ccc(O)c(O)c1O on Zinc finger protein mex-5 (Caenorhabditis elegans)?
Output: 0.668 µM (inconclusive)
